Biological target: CYP1A2 (Homo sapiens, UniProt P05177)
Sequence (P05177 whole entry): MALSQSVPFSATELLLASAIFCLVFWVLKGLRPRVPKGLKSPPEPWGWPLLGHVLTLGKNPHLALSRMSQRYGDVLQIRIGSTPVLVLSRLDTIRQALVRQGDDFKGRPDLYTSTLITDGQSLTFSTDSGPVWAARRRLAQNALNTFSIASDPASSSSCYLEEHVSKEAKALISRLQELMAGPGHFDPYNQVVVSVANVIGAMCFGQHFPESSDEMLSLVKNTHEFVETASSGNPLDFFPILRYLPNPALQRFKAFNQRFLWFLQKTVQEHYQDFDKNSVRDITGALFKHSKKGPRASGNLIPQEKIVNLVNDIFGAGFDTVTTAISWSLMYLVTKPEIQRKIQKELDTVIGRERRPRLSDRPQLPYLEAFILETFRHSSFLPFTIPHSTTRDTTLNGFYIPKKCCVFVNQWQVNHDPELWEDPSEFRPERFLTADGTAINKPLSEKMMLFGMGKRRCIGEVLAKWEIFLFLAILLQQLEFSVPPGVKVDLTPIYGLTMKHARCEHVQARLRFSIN
Assay: Inhibition of CYP1A2 (unknown origin) at 10 uM relative to control
Type: ADME
readout type: inhibition at 10 µM

INSERT INTO measurements (compound, reading) VALUES
  ('CC(=O)N1CCN(c2ccc(OCC3COC(Cn4ccnc4)(c4ccc(Cl)cc4Cl)O3)cc2)CC1 (configuration not stated)', '> 100%');

Then there is this compound:
### Prompt Given the compound COc1c(C(=O)Nc2ccc3c(C)nn(CCC4CCN(C)CC4)c3c2)ccc2c1C=CC(C)(C)O2 , what is its reported inhibition at 10 µM?
### Response > 100%
